- method: Various In Vitro Cell Biology Assays (Example 41, Tables 23-26)
- Assay type: cell-based
- conditions: human; Cell viability (h) (PBMC/24 h), MTT; 3×10^−6 M
readout-name: cytotoxicity at 24 h (%)
# unit: % | format: bare number

> print(dat)
                            molecule  quantitative.result
1  OB(O)CCCCCn1c(-c2cscn2)nc2ccccc21                   -9

For the molecule C[C@@H]1CC2C3CCC4=CC(=O)C=CC4(C)C3(F)[C@@H](O)CC2(C)C1(O)C(=O)CO (stereo partly drawn) [drawing 107] , what cytotoxicity at 24 h is on record?
6

Give its cytotoxicity at 24 h value. Item: N#Cc1ncnc2c1ncn2CCCCCB(O)O [drawing 109]
5

Look up cytotoxicity at 24 h for this molecule: Nc1nc(Cl)c2ncn(CCCCCB(O)O)c2n1 [drawing 108]
6

Fill blank: measured cytotoxicity at 24 h of the molecule OB(O)CCCCn1c(C(F)(F)F)nc2ccccc21 [drawing 106] is ____.
-6

Endpoint output: cytotoxicity at 24 h of N#Cc1ccc2c(ccn2CCCCCB(O)O)c1 [drawing 105] . Value?
0

====

- system-under-test: phosphodiesterase (Homo sapiens)
readout-name: IC50 (nM)
Reply with just the number (in nM).

Given the compound COc1ccc(-c2nc3ccccc3n2CCCCCB(O)O)cc1 , what is its reported IC50?
960

====

Listed here are molecules together with their documented inhibition at 3 µM.
- method: Various In Vitro Cell Biology Assays (Example 41, Tables 23-26)
- Type: cell-based
- conditions: PBMC, 48 h, IL-2 secretion (h) (PBMC), PHA 20 μg/ml, 48 h; 3×10^−6 M; read-out: % Inhibition of Control Values
- Experimental: In each experiment, the respective reference compound was tested concurrently with the test compounds in order to assess the assay suitability. It was tested at several concentrations (for IC50 value determination). The test compounds were assayed at 3×10^−6 M. Results. The results are expressed as a percent of control values and as a percent inhibition of control values obtained in the presence of the test compounds. […]
Dear colleague, please return just the value in %, with no unit written.

> print(dat)
                                   molecule  u  quantitative.result
1  C[C@@H]1CC2C3CCC4=CC(=O)C=CC4(C)C3(F)[C@@H](O)CC2(C)C1(O)C(=O)CO (some centres unmarked) [drawing 83]  %                   18
2  Nc1nc(Cl)c2ncn(CCCCCB(O)O)c2n1 [drawing 84]  %                   78
3  OB(O)CCCCn1c(C(F)(F)F)nc2ccccc21 [drawing 82]  %                   72
4  OB(O)CCCCCn1c(-c2cscn2)nc2ccccc21 [drawing 81]  %                   56

Pending molecule:
What value of measured inhibition at 3 µM is listed for N#Cc1ncnc2c1ncn2CCCCCB(O)O [CCI-7048] ?
23

====

- system-under-test: CYP2C9 (Homo sapiens)
- Sequence (P11712 whole entry): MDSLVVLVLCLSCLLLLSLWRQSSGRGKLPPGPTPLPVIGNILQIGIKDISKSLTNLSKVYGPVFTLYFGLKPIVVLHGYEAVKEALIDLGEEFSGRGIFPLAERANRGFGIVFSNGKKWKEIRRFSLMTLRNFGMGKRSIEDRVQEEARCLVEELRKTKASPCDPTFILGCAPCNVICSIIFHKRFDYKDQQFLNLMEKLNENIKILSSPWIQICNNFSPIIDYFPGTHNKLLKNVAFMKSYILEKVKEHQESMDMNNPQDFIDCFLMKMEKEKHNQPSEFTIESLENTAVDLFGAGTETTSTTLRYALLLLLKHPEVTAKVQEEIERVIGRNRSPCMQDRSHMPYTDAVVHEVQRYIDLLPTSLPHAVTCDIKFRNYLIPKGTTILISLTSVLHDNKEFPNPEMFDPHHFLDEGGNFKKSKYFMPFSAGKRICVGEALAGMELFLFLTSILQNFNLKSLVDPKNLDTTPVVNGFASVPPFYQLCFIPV
- method: ADME-Tox: In vitro Metabolism (Cytochrome P450, fluorogenic substrates BFC, CEC, MFC)
- Parameters: dose or concentration left out as unconfirmed
- conditions: human
readout-name: inhibition

# query: inhibition of entry N#Cc1ccc2c(ccn2CCCCCB(O)O)c1 [Example 20]
73%

====

- system-under-test: Progesterone(h) (PR)
- method: Progesterone(h) (PR) binding assay
readout-name: pKi
Scale: negative log10 of molar concentration, which is what pKi denotes.

Data request, read-out pKi, for CCC(=O)[C@@]1(C)CC[C@H]2[C@@H]3CCC4=CC(=O)CCC4=C3CC[C@@]21C
8.52

====

- system-under-test: Progesterone(h) (PR)
- method: Progesterone(h) (PR) binding assay
readout-name: pIC50
API: returns pIC50 as number; meaning -log10 of concentration in mol/L.

If you can, please state the reported pIC50 value of CCC(=O)[C@@]1(C)CC[C@H]2[C@@H]3CCC4=CC(=O)CCC4=C3CC[C@@]21C .
8.05

====

- system-under-test: P2X
- method: P2X binding assay
- conditions: reference compound; Cheng Prusoff
readout-name: Ki (nM)
Please state the figure in nM; there is no need to write the unit.

Reported Ki for Nc1ncnc2c1ncn2[C@@H]1O[C@H](COP(=O)(O)CP(=O)(O)OP(=O)(O)O)[C@@H](O)[C@H]1O : what is it?
3.8

====

- system-under-test: UniProt P04177
- Sequence (P04177 whole entry): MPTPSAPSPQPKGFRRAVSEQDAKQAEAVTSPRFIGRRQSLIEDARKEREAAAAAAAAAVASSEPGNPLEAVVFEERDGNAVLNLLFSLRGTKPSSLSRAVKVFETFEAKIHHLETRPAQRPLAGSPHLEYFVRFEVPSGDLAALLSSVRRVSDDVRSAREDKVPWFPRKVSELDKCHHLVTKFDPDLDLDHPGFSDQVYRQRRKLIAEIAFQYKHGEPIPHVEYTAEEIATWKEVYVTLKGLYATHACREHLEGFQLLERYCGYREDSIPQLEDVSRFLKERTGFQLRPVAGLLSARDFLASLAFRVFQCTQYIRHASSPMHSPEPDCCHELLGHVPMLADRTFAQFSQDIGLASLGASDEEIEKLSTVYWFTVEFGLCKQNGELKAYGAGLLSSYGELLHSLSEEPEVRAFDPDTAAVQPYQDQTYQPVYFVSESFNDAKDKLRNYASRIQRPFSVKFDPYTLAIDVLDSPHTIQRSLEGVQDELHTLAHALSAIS
readout-name: pIC50
Hey, just a heads up that pIC50 is the negative log base 10 of the concentration in molar.

Kindly state the measured pIC50 obtained for N[C@@H](Cc1ccc(O)c(I)c1)C(=O)O with UniProt P04177.
6.00

====

- system-under-test: CYP2C19 (Homo sapiens, UniProt P33261)
- Sequence (P33261 whole entry): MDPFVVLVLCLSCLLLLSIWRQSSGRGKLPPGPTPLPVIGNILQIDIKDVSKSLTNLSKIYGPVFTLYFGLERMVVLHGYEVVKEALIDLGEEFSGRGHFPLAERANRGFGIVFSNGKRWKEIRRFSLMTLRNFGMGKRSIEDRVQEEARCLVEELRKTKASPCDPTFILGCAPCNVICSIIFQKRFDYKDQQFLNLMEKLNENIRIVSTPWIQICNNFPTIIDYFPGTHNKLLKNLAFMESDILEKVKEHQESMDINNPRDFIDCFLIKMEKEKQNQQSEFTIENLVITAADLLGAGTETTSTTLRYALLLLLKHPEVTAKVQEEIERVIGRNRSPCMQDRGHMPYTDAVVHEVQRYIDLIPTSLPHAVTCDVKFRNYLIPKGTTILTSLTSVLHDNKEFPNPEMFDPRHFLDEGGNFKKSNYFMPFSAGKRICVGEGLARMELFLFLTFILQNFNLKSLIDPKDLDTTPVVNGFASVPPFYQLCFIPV
- method: ADME-Tox: In vitro Metabolism (Cytochrome P450, fluorogenic substrates BFC, CEC, MFC)
- Design: dose or concentration left out as unconfirmed
- conditions: human
readout-name: inhibition (%)
Answer with a number only, understood to be in %.

Missing value: inhibition, CYP2C19 (Homo sapiens, UniProt P33261), entry N#Cc1ccc2c(ccn2CCCCCB(O)O)c1 . Fill in?
52

====

- system-under-test: I2 (central)
- method: I2 (central) binding assay
- conditions: reference compound; Cheng Prusoff
readout-name: Ki (nM)
Give your result in nM as a bare value.

Look up Ki for this compound: c1ccc2c(c1)OCC(C1=NCCN1)O2 (stereo not shown) [idazoxan]
4.9

====

- system-under-test: UniProt:O00408
- Sequence (O00408 whole entry): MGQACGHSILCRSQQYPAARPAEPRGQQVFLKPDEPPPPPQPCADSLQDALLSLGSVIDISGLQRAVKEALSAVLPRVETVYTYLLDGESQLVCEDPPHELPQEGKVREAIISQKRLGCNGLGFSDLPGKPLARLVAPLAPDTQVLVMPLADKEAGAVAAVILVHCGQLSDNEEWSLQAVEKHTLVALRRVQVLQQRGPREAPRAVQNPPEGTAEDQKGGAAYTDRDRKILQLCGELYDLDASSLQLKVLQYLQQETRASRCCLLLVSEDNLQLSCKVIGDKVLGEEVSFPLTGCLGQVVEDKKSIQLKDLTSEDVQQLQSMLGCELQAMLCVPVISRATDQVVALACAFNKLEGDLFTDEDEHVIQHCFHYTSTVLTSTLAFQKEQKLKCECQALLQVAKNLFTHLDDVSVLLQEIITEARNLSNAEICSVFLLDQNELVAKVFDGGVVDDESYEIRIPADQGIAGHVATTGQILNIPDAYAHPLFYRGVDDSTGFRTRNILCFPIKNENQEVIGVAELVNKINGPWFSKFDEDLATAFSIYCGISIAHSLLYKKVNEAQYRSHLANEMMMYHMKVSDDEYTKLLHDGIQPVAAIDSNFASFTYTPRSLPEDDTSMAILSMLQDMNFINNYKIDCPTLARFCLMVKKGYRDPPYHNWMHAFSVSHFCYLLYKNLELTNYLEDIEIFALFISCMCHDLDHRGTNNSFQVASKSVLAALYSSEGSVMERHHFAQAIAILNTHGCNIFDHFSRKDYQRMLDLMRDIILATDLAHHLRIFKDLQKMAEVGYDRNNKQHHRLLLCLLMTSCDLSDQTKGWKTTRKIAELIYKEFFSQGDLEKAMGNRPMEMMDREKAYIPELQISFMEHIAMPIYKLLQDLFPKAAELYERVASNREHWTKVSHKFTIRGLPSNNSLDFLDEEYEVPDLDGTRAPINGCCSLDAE
readout-name: IC50 (nM)
Quick note: give the figure in nM, leave out the unit.

Request the reported IC50 associated with COc1ccc(-c2nc3ccccc3n2CCCCCB(O)O)cc1
110

====

- system-under-test: CYP3A4 (Homo sapiens)
- Sequence (P08684 whole entry): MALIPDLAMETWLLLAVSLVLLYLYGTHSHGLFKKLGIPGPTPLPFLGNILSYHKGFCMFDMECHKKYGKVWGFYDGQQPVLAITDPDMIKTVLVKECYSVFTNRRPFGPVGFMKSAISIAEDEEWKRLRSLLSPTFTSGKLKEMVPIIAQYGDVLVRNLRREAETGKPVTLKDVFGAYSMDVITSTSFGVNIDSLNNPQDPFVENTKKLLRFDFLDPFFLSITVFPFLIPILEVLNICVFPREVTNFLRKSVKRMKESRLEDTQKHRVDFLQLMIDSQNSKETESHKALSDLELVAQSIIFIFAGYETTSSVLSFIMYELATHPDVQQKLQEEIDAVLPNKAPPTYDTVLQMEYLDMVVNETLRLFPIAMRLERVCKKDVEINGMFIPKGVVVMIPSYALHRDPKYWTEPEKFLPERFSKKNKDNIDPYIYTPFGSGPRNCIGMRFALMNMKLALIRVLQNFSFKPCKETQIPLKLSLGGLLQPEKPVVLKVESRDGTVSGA
- method: ADME-Tox: In vitro Metabolism (Cytochrome P450, fluorogenic substrates BFC, CEC, MFC)
- Parameters: dose or concentration left out as unconfirmed
- conditions: human
readout-name: inhibition

Requested field: inhibition. Item: N#Cc1ccc2c(ccn2CCCCCB(O)O)c1
97%

====

- system-under-test: UniProtKB P05177
- Sequence (P05177 whole entry): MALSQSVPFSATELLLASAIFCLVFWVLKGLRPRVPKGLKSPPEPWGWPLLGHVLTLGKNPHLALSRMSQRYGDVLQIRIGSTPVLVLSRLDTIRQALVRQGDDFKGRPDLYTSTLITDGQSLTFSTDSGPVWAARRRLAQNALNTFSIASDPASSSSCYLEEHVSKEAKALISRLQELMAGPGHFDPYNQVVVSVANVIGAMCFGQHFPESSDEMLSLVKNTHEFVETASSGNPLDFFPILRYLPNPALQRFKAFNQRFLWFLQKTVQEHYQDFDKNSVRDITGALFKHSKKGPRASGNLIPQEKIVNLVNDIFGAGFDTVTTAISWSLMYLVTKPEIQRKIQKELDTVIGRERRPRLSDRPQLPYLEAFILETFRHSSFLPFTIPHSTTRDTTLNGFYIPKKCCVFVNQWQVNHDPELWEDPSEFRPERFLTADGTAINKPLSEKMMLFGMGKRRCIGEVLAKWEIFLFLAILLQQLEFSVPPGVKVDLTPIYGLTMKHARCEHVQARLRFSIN
- method: ADME-Tox: In vitro Metabolism (Cytochrome P450, fluorogenic substrates BFC, CEC, MFC)
- Design: dose or concentration left out as unconfirmed
- conditions: human
readout-name: inhibition (%)
# number only, unit % dropped from output

Item under review: N#Cc1ccc2c(ccn2CCCCCB(O)O)c1 . Reported inhibition?
40
